Form field: OD450 (one value per entry).
- ASSAY TARGET: T1, human CD22-ECD-His protein (human, UniProt P20273 20-687)
- T1 construct: Made in house in HEK293E; also called hCD22-ECD-His; recombinant human CD22-ECD His protein; not shown: His tag
- T1 sequence: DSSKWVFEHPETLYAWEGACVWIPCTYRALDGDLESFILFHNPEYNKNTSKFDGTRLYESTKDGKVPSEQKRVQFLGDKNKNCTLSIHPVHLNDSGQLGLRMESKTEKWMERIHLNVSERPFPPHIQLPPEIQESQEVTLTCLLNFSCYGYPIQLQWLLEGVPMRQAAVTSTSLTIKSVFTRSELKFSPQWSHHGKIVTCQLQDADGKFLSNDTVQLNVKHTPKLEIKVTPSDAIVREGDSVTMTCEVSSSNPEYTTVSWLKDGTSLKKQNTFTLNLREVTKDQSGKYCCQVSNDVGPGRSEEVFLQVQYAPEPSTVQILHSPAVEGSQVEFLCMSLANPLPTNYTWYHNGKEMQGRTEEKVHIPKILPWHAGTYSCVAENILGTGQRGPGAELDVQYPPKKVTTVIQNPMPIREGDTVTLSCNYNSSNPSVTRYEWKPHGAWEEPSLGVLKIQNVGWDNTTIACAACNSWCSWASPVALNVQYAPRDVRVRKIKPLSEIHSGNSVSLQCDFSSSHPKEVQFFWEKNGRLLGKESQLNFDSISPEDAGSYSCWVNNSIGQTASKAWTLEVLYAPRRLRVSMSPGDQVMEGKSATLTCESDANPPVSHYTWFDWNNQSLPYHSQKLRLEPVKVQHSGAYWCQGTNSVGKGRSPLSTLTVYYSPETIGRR
- METHOD SUMMARY: ELISA, Ab 0.01 nM
Express it in OD450; write the number only.

Study these solved cases before continuing.
{"columns": ["BINDER", "OD450, OD450"],
 "data": [
  ["F1.7.6 (antibody, human IgG1, kappa, V domains shown, Human-murine chimeric IgG1, kappa) VH: EIQLQQSGPELVKPGTSVKVSCKASGYDFTRYNMYWVKQSHGKSLEWIGYIDPYNGDTRYNQKFKGKATLTVDKSSSTAYMHLNSLTSEDSAVYYCEAIYYDMEGYALDYWGQGTSVTVSS VL: DIVMSQSPSSLAVSVGEKVTMSCKSSQSLLYSNNQKNYLAWYQQKPGQSPKKLIYWASTRESGVPDRLTGSGSGTDFTLTISSVTAEDLAVYYCQQFYSYPWTFGGGTKLEIKR", 2.2],
  ["F2.173.9 (antibody, human IgG1, lambda, V domains shown, Human-murine chimeric IgG1, lambda) VH: EVQLVESGGDLVKPGESLKLSCEASGFTFSNYAMSWVRQTPDRRLEWVATISSIGSFTYYSDSVKGRFTISRDNVKSTLHLQMNNLKSGDTAIYFCARLGVYFDSWGQGTTLTVSS VL: QLVLTQSSSASFSLGASAKLTCTLSSQHSTYTIEWYQQQPHKPPKFVMEIKKDGSHYTGDGIPDRFSGSSSGADRYLSISNIQPEDETIYICGVSDMIKDQFVYVFGGGTKVTVLG", 1.52]
]}

I would be grateful if you could share the reported OD450 for F2.70.2 (antibody, human IgG1, lambda, V domains shown, Human-murine chimeric IgG1, lambda) VH: EVQLVESGGGLVKPGGSLKLSCAASGFTFSDYGMNWFRQAPEKGLEWVAYISRGSHTIYYADTVKGRFTISRDNAKNTLFLQMTSLRSNDTAMYYCVRMAGYYAMDYWGQGTSVTVSS VL: QLVLTQSSSASFSLGASAKLTCTLSSQHSSYIIEWYQQQPLKPPKYVMELKKDGSHSTGDGIPDRFSGSSSGADRYLSISNIQPEDEAIYICGVGDTIKEQFVYVFGGGTKVTVLG .
1.56
